For each entry below, report its MIC value.
- Test system: E. coli (TG1) (pSF815)
- assay protocol: microbe, parasite or virus in culture
- condition info: Escherichia coli, read-out: Minimum Inhibitory Concentration
Give bare numbers, in µg/mL.

Your task in this section: give MIC for each listed record.
1. CC1O[C@@H](O[C@H]2C(O[C@H]3OC(CN)CCC3N)C(N)C[C@@H](N)C2O)C(O)[C@@H](O)[C@@H]1N (some centres unmarked) [RR501, 3′,4′-Dideoxy Pyranmycin]
2. NC[C@H]1O[C@H](O[C@H]2[C@H](O[C@@H]3O[C@H](CO)[C@@H](O)[C@H]3O)[C@@H](O)[C@H](N)C[C@@H]2N)[C@H](N)[C@@H](O)[C@@H]1O [Ribostamycin, ribostamycin]
3. CC1O[C@@H](O[C@H]2C(O[C@H]3OC(CN)[C@@H](O)[C@H](O)C3N)C(N)C[C@@H](NC(=O)[C@@H](O)CCN)C2OCCN)C(O)[C@@H](O)[C@@H]1N (some centres unmarked) [JT050]
4. NCC[C@H](O)C(=O)N[C@@H]1C[C@H](N)[C@@H](O[C@H]2O[C@H](CN)[C@@H](O)[C@H](O)[C@H]2O)[C@H](O)[C@H]1O[C@H]1O[C@H](CO)[C@@H](O)[C@H](N)[C@H]1O [Amikacin, amikacin]
5. CC1O[C@@H](O[C@@H]2C(O)[C@H](NC(=O)[C@@H](O)CCN)CC(N)[C@H]2O[C@H]2OC(CN)[C@@H](O)[C@H](O)C2N)C(O)[C@@H](O)[C@@H]1N (some centres unmarked) [JT005]

a:
1. 4
2. 16
3. 2
4. 1
5. 4
